PROTOCOL SUMMARY: Cytotoxicity against human HepG2 cells after 24 to 48 hrs in presence of galactose by trypan blue dye-based hemocytometric method
Type: cell-based
MEASURED PROPERTY: CC50

COc1ccc2nc(C)cc(OCC(=O)Nc3ccccc3Cl)c2c1 ... > 140 µM
COc1ccc2nc(C)cc(OCC(=O)Nc3ccc(C)cc3)c2c1 ... 41.5 µM
COc1ccc2nc(C)cc(OCC(=O)Nc3ccc(-c4ccccc4)cc3)c2c1 ... > 126 µM
COc1ccc2nc(C)cc(OCC(=O)Nc3ccc(OC)c(OC)c3)c2c1 ... > 131 µM

Hi, could you look up CC50 for each item in my list?
1. COc1ccc2nc(C)cc(OCC(=O)Nc3ccc4c(c3)OCO4)c2c1
2. COc1ccccc1NC(=O)COc1cc(C)nc2ccccc12
3. COc1ccc2nc(C)cc(OCC(=O)Nc3ccc(Cl)cc3)c2c1
4. COc1ccc(OC)c(CCNC(=O)COc2cc(C)nc3ccc(OC)cc23)c1

39.6 µM
8.64 µM
71.1 µM
> 122 µM
